# studySystem: Calpain-2 catalytic subunit (Sus scrofa, UniProt P43367)
# Sequence (P43367 whole entry): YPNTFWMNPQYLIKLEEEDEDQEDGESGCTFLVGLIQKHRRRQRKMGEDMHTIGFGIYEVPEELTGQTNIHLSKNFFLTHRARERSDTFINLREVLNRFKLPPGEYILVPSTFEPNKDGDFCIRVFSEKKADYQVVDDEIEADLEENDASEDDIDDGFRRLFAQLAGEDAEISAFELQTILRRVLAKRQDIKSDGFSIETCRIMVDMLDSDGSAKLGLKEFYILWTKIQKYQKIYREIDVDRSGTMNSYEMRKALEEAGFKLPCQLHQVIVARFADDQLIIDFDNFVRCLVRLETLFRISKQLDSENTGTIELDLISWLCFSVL
# testName: m-calpain protease blockers, concentration series – biochemical, fluorogenic peptide substrate, dose response (AID 1420)
# Assay type: functional
measurementName: IC50

Some molecules with known IC50 results, for comparison:
CC1Cc2ccccc2N1C(=O)COC(=O)Cn1nnc(-c2ccccc2)n1 (stereo unspecified): 8.56 µM (not active)
COCC/N=c1\scc(-c2cccs2)n1/N=C/c1ccc(O)c(O)c1O: 38.9 µM (not active)
O=C(CCC(=O)OCc1cccc(C(=O)Oc2ccccc2)c1)Nc1cccc2ccccc12: < 0.4 µM (not active)
Cc1cc(C)c2nc(-c3cccnc3)cc(C(=O)Nc3ccc(S(=O)(=O)Nc4onc(C)c4C)cc3)c2c1: > 50 µM (not active)
Cc1ccc(C)c(N2CCN(C(=O)C3CCCCN3S(=O)(=O)c3ccc(F)cc3)CC2)c1 (stereo unspecified): 7.84 µM (not active)

Shift focus to the following entry.
Q: Value lookup for IC50; key = CSc1ccccc1NC(=O)COc1ccccc1C
Ans: 8.86 µM (not active)
